Data origin, for the record: patent US11447487B2

Here's a batch of compounds along with measured IC50 for ROCK2 (Homo sapiens (Human)).
Measurement label: IC50 (nM)

Study these solved cases before continuing.
Entry under test: CC(C)(C)OC(=O)NCCC1NC(=O)N([C@H]2C[C@@]3(C[C@H](Oc4ncccc4C(N)=O)C3)C2)C1=O (single isomer, unassigned) . Its IC50 was 1710

Recorded result, CC[C@H](C)[C@@H]1NC(=O)N([C@H]2C[C@@]3(C[C@H](Oc4ncccc4C(N)=O)C3)C2)C1=O (stereo partly shown) , IC50: 45

Sample CC(C)(C)C1NC(=O)N([C@H]2C[C@@]3(C[C@H](Oc4ncccc4C(N)=O)C3)C2)C1=O (stereo partly shown) ; IC50 observed: 129

Value of measured IC50 for the entry NC(=O)c1cccnc1O[C@H]1C[C@]2(C1)C[C@H](N1C(=O)NC(CCc3ccccc3)C1=O)C2 (single isomer, unassigned) [Example 5] : 25

(A) CC(C)(C)OC(=O)NCCCC1NC(=O)N([C@H]2C[C@@]3(C[C@H](Oc4ncccc4C(N)=O)C3)C2)C1=O (stereo partly shown)
(B) [H][C@]1(Oc2ncccc2C(N)=O)C[C@@]2(C[C@H](N3C(=O)N[C@@H](C[C@H]4CC[C@H](NC(=O)c5ccccc5)CC4)C3=O)C2)C1 (stereo partly shown)
Identify the entry with the smaller IC50: A or B . Mark your selection by writing its label.
B
(B: 52 nM, A: 744 nM)

(1) NC(=O)c1cccnc1O[C@H]1C[C@]2(C1)C[C@H](N1C(=O)NC(CCOCC(F)(F)F)C1=O)C2 (single isomer, unassigned)
(2) NC(=O)c1cccnc1O[C@H]1C[C@]2(C1)C[C@H](N1C(=O)NC(CC3CCCC3)C1=O)C2 (single isomer, unassigned) [Example 40]
(3) NC(=O)c1cccnc1O[C@H]1C[C@]2(C1)C[C@H](N1C(=O)C3CCCCN3C1=O)C2 (stereo partly shown)
(4) NC(=O)c1cccnc1O[C@H]1C[C@]2(C1)C[C@H](N1C(=O)N[C@@H](CC(F)(F)F)C1=O)C2 (stereo partly shown)
Sort low-to-high on IC50, please. Output spec: labels arranged per the requested ranking.
2, 4, 1, 3
(2: 14 nM, 4: 156 nM, 1: 378 nM, 3: 1340 nM)

(I) NC(=O)c1cccnc1O[C@H]1C[C@]2(C1)C[C@H](N1C(=O)NC(CCC3CCCCCC3)C1=O)C2 (single isomer, unassigned) [Example 53]
(II) CC[C@@H]1NC(=O)N([C@H]2C[C@@]3(C[C@H](Oc4ncccc4C(N)=O)C3)C2)C1=O (stereo partly shown)
(III) COC[C@@H]1NC(=O)N([C@H]2C[C@@]3(C[C@H](Oc4ncccc4C(N)=O)C3)C2)C1=O (stereo partly shown)
Let's sort these by IC50, smallest first. Go ahead? Use the labels to give the ranking in the order requested.
I, II, III
(I: 171 nM, II: 1660 nM, III: 2390 nM)
